Data credit: ChEMBL document CHEMBL1201862

Consider the following molecules; for each one, report its GI50.
System: SNB-19
Assay: NCI tumour cell line growth inhibition, 48 h
Calls of active or inactive are those of the source. No stated cut-off is given here; in the data, active = GI50 up to about 1.1 µM and inactive = higher.

Example molecules with recorded GI50:
CC[C@H]1C=CCC[C@@]2(C[C@@H]3CC[C@H]4[C@H](C(=O)OCCCCCCCCCCCCCCCC(=O)N(CCCN)C[C@@H](O)CCN)[C@]5(CCC[C@@H](C)O5)NC(=[N+]34)N2)O1    1.21 µM (inactive)
Oc1c2cc(Br)cc1CCc1cc(Br)cc(c1O)CC2    31 µM (inactive)

What measured GI50 goes with "Cc1cc(O)c(O)c(Oc2cc(C)cc(O)c2O)c1" ?
35.9 µM (inactive)
